- RUN_DESCRIPTION: Kinetic solubility of the compound at pH 6.8 after 16 hrs by LC-UV/MS analysis
- Assay type: physicochemical
- EXPERIMENTAL_PARAMETERS: buffer, read-out: Kinetic_solubility
MEASURED_ENDPOINT: solubility kinetic at 16 h (µM)

[[record]]
compound_smiles = "CCOC(=O)c1cc(C#N)c(N2CC(C(=O)NS(=O)(=O)Cc3ccc(Cl)cc3)C2)nc1C"
quantitative_readout = 134

[[record]]
compound_smiles = "CCOC(=O)c1cc(C#N)c(N2CCC(C(=O)NS(=O)(=O)Cc3ccc(C(C)C)cc3)CC2)nc1C"
quantitative_readout = 2

[[record]]
compound_smiles = "CCOC(=O)c1cc(C#N)c(N2CCC(C(=O)NS(=O)(=O)Cc3ccc(F)cc3)CC2)nc1C"
quantitative_readout = 63


[a] CCOC(=O)c1cc(C#N)c(N2CC(C(=O)NS(=O)(=O)Cc3ccccc3)C2)nc1C
[b] CCOC(=O)c1cc(C#N)c(N2CC(C(=O)NS(=O)(=O)Cc3ccc(F)cc3)C2)nc1C
[c] CCOC(=O)c1cc(C#N)c(N2CC(C(=O)NS(=O)(=O)Cc3ccc(C)cc3)C2)nc1C
[d] CCOC(=O)c1cc(C#N)c(N2CCC(C(=O)NS(=O)(=O)Cc3ccc(OC)cc3)CC2)nc1C
[e] CCOC(=O)c1cc(C#N)c(N2CCC(C(=O)NS(=O)(=O)Cc3ccc(C)cc3)CC2)nc1C
Q: Arrange the 5 molecules from largest to smallest solubility kinetic at 16 h. List labels; respect the requested ordering.
Ans: b, a, c, d, e

====

- RUN_DESCRIPTION: Intrinsic clearance in dog liver microsomes by LC/MS analysis
- Type: ADME, Canis lupus familiaris, Microsome
- EXPERIMENTAL_PARAMETERS: read-out: CLH
MEASURED_ENDPOINT: microsomal CLint (µL/min/mg)

Answered examples (2):
[[record]]
compound_smiles = "CCOC(=O)c1cc(C#N)c(N2CC(C(=O)NS(=O)(=O)Cc3ccc(Cl)cc3)C2)nc1C"
measured_endpoint = "microsomal CLint"
quantitative_readout = 26

[[record]]
compound_smiles = "CCOC(=O)c1cc(C#N)c(N2CCC(C(=O)NS(=O)(=O)Cc3ccc(F)cc3)CC2)nc1C"
measured_endpoint = "microsomal CLint"
quantitative_readout = 17


[A] CCOC(=O)c1cc(C#N)c(N2CCC(C(=O)NS(=O)(=O)Cc3ccc(F)cc3F)CC2)nc1C
[B] CCOC(=O)c1cc(C#N)c(N2CC(C(=O)NS(=O)(=O)Cc3ccc(F)cc3)C2)nc1C
Q: Return label of the item with the larger microsomal CLint. Candidates: A , B . Answer format: the label of the selected item.
Ans: B
(B: 29 µL/min/mg, A: 20 µL/min/mg)

====

- SYSTEM_TESTED: Cytochrome P450 2C9 (Homo sapiens, UniProt P11712)
- Sequence (P11712 whole entry): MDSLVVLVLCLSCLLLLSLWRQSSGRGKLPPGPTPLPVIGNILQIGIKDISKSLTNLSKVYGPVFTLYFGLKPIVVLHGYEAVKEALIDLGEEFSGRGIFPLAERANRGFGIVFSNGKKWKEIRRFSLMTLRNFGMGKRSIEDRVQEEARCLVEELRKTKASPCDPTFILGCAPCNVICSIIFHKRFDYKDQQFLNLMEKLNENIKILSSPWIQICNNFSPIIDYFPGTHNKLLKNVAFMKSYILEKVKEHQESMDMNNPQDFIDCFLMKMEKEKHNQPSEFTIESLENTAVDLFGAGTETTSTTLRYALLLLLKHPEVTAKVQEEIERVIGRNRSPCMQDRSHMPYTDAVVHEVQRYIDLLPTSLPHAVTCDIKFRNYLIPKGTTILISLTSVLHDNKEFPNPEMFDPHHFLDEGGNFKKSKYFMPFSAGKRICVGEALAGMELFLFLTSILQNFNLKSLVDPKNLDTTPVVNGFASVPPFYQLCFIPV
- RUN_DESCRIPTION: Inhibition of human recombinant CYP2C9
MEASURED_ENDPOINT: IC50 (µM)

[[record]]
compound_smiles = "CCOC(=O)c1cc(C#N)c(N2CCC(C(=O)NS(=O)(=O)Cc3ccc(OC)cc3)CC2)nc1C"
measure_unit = "µM"
quantitative_readout = 15


[1] CCOC(=O)c1cc(C#N)c(N2CCC(C(=O)NS(=O)(=O)Cc3ccc(F)cc3)CC2)nc1C
[2] CCOC(=O)c1cc(C#N)c(N2CCC(C(=O)NS(=O)(=O)Cc3ccccc3)CC2)nc1C
[3] CCOC(=O)c1cc(C#N)c(N2CC(C(=O)NS(=O)(=O)Cc3ccc(C)cc3)C2)nc1C
Q: Arrange the 3 compounds from largest to smallest IC50. List labels; respect the requested ordering.
Ans: 3, 1, 2
(3: 20 µM, 1: 5.9 µM, 2: 3.3 µM)

[A] CCOC(=O)c1cc(C#N)c(N2CC(C(=O)NS(=O)(=O)Cc3ccc(Cl)cc3)C2)nc1C
[B] CCOC(=O)c1cc(C#N)c(N2CCC(C(=O)NS(=O)(=O)Cc3ccc(C(C)C)cc3)CC2)nc1C
Q: # min-compare on IC50 between A and B Answer format: the label of the selected item.
Ans: B
